These entries and their values trace back to ChEMBL document CHEMBL5108030.

biological target: AMP-activated protein kinase, AMPK; experiment: Activation of AMPK in human HepG2 cells assessed as increase in ACC phosphorylation at Ser79 incubated for 1 hr
pEC50: −log10 of the molar value.
Value kind: pEC50

Molecule | Value kind | Assay value
N#Cc1ccc(CN2CCC(NC(=O)c3ccc(C(=O)N4CCC(C(=O)c5ccc(F)cc5F)CC4)nc3)CC2)cc1 | pEC50 | 7.74
O=C(NC1CCN(C(=O)C2CCCCC2)CC1)c1ccc(C(=O)N2CCN(Cc3ccc(F)cc3)CC2)cn1 | pEC50 | 6.52
N#Cc1ccc(CN2CCC(NC(=O)c3ccc(C(=O)N4CCN(S(=O)(=O)c5ccc(F)cc5)CC4)cn3)CC2)cc1 | pEC50 | 6.41
COc1ccc(OC2CCN(C(=O)c3ccc(C(=O)NC4CCN(Cc5ccc(C#N)cc5)CC4)nc3)CC2)cc1 | pEC50 | 7.96
N#Cc1ccc(CN2CCC(NC(=O)c3ccc(C(=O)N4CCN(C(=O)c5ccccc5)CC4)cn3)CC2)cc1 | pEC50 | 5.86
COc1ccc(CN2CCC(NC(=O)c3ccc(C(=O)N4CCC(C(=O)c5ccc(OC)cc5)CC4)nc3)CC2)cc1 | pEC50 | 7.39
COc1ccc(C(=O)C2CCN(C(=O)c3ccc(C(=O)NC4CCN(Cc5ccc(N)cc5)CC4)cn3)CC2)cc1 | pEC50 | 6.00
N#Cc1ccc(CN2CCC(NC(=O)c3ccc(C(=O)N4CCC(C(F)c5ccc(F)cc5)CC4)cn3)CC2)cc1 (stereo not drawn) | pEC50 | 8.22
